# protocol-description: Protein binding in human plasma assessed as unbound fraction
# Assay type: ADME, cell-free
Readings of Fu for the listed molecules

>  <smiles-structure>
Cn1nccc1-c1nccc2cc(Nc3n[nH]c4cccnc34)ccc12

>  <Fu [fraction]>
0.096

$$$$
>  <smiles-structure>
FC(F)c1nccc2cc(Nc3n[nH]c4cccnc34)ccc12

>  <Fu [fraction]>
0.03

$$$$
>  <smiles-structure>
c1cnc2c(Nc3ccc4c(-n5cccn5)nccc4c3)n[nH]c2c1

>  <Fu [fraction]>
0.09

$$$$
>  <smiles-structure>
c1cnc2c(Nc3ccc4cnccc4c3)n[nH]c2c1

>  <Fu [fraction]>
0.092

$$$$
